# Test Details: Solubility assessment of Form I, gravimetric, slurried 48 h in solvents/solvent mixtures
# Type: physicochemical
# Condition Notes: organic solvent or mixture, thermodynamic from solid; THF, temperature not stated; read-out: Solubility (moderately soluble)
Measurement Type: solubility at 48 h

INSERT INTO results (compound, result) VALUES
  ('O=C(CCCCCCNC(=O)c1cnc(N(c2ccccc2)c2ccccc2Cl)nc1)NO [Form I]', '10 to 55 mg/mL');

* * *

# Test Details: Solubility assessment of Form I, gravimetric, slurried 48 h in solvents/solvent mixtures
# Type: physicochemical
# Condition Notes: trifluoroethanol (TFE), organic solvent or mixture, thermodynamic from solid; Trifluoro Ethanol (TFE), 45° C.; read-out: Solubility
Measurement Type: solubility at 48 h

INSERT INTO measurements (compound, result) VALUES
  ('O=C(CCCCCCNC(=O)c1cnc(N(c2ccccc2)c2ccccc2Cl)nc1)NO [Form I]', '> 100 mg/mL');

* * *

# Test Details: Solubility assessment of Form I, gravimetric, slurried 48 h in solvents/solvent mixtures
# Assay type: physicochemical
# Condition Notes: organic solvent or mixture, thermodynamic from solid; Heptane (HEP), 45° C.; read-out: Solubility
Measurement Type: solubility at 48 h

INSERT INTO assay_data (compound, result) VALUES
  ('O=C(CCCCCCNC(=O)c1cnc(N(c2ccccc2)c2ccccc2Cl)nc1)NO [Form I]', '< 1000 µg/mL');

* * *

# Test Details: Solubility assessment of Form I, gravimetric, slurried 48 h in solvents/solvent mixtures
# Format: physicochemical
# Condition Notes: organic solvent or mixture, thermodynamic from solid; Acetone:H2O (95:5), 15° C.; read-out: Solubility
Measurement Type: solubility at 48 h (mg/mL)

INSERT INTO assay_data (compound, output_unit, readout_number) VALUES
  ('O=C(CCCCCCNC(=O)c1cnc(N(c2ccccc2)c2ccccc2Cl)nc1)NO [Form I]', 'mg/mL', 21);

* * *

# Test Details: Solubility assessment of Form I, gravimetric, slurried 48 h in solvents/solvent mixtures
# Type: physicochemical
# Condition Notes: organic solvent or mixture, thermodynamic from solid; EtOH:H2O (95:5), 15° C.; read-out: Solubility
Measurement Type: solubility at 48 h (mg/mL)

INSERT INTO results (molecule, output_unit, readout_number) VALUES
  ('O=C(CCCCCCNC(=O)c1cnc(N(c2ccccc2)c2ccccc2Cl)nc1)NO [Form I]', 'mg/mL', 18);

* * *

# Test Details: Solubility assessment of Form I, gravimetric, slurried 48 h in solvents/solvent mixtures
# Type: physicochemical
# Condition Notes: organic solvent or mixture, thermodynamic from solid; Acetonitrile (ACN), 15° C.; read-out: Solubility
Measurement Type: solubility at 48 h

INSERT INTO assay_data (molecule, result) VALUES
  ('O=C(CCCCCCNC(=O)c1cnc(N(c2ccccc2)c2ccccc2Cl)nc1)NO [Form I]', '< 1000 µg/mL');

* * *

# Test Details: Solubility assessment of Form I, gravimetric, slurried 48 h in solvents/solvent mixtures
# Assay type: physicochemical
# Condition Notes: organic solvent or mixture, thermodynamic from solid; Tetrahydrofuran (THF), 15° C.; read-out: Solubility
# Method: The Solubility of Form I was measured gravimetrically in 15 different solvents and solvent mixtures at 15 and 45° C. About 75 mg of the compound was dispensed in 10 volumes (750 μL) of the solvent/solvent mixture and slurried for 48 h. The vials were centrifuged. The supernatant was collected and left for slow evaporation under vacuum at 45° C. The solids obtained after evaporation were used to determine the solubility of Form I and analyzed by XRPD for any new forms.
Measurement Type: solubility at 48 h (mg/mL)

INSERT INTO measurements (compound, measurement_type, readout_number) VALUES
  ('O=C(CCCCCCNC(=O)c1cnc(N(c2ccccc2)c2ccccc2Cl)nc1)NO [Form I]', 'solubility at 48 h', 13);
